Reported Potency values follow for various molecules
- Experiment Description: Quantitative High-Throughput drug screen in 47 multiple myeloma cell lines against the NCATS MIPE library collection: SKMM1_PLB cell viability assay (AID 1919863); note: potency is the fitted concentration of half-maximal effect; nearly all actives have a fitted effect of over 35% in size
- Cond: SKMM1 myeloma viability, CellTiter-Glo ATP, 48 h
Results filed as inconclusive are left out. Calls of active or inactive are those of the source. Calls come from the whole dose curve; as a rule, active = well fitted cell-killing curve with a large enough effect; inconclusive = small, poorly fitted or top-dose-only effect, or effect the other way; inactive = no such curve, though single readings can be large or run the other way.

>  <Molecule>
O=C(O)c1ccc(O)c2ncc(N3CCOCC3)cc12

>  <Potency>
18.7 µM (active)

$$$$
>  <Molecule>
COc1cc2ncnc(Nc3cc(Br)c(O)c(Br)c3)c2cc1OC

>  <Potency>
0.0469 µM (active)

$$$$
>  <Molecule>
O=C(Nc1cccc(Cl)c1)Nc1ncc(CCNc2ncnc3ccsc23)s1

>  <Potency>
3.32 µM (active)

$$$$
>  <Molecule>
COc1nccc(-c2c(-c3ccc(F)cc3)ncn2C2CCNCC2)n1

>  <Potency>
9.35 µM (active)

$$$$
>  <Molecule>
CC1=C[C@@H]2[C@@H]([C@@H](O)C[C@@]3(C)[C@H]2C[C@@H](C)[C@]3(O)C(=O)CO)[C@@]2(C)Cc3cnn(-c4ccccc4)c3C=C12

>  <Potency>
18.7 µM (active)

$$$$
>  <Molecule>
Cc1cc(OCCCS(C)(=O)=O)cc(C)c1-c1cccc(COc2ccc3c(c2)OC[C@H]3CC(=O)O)c1

>  <Potency>
14.8 µM (active)

$$$$

Give the measured Potency of C[C@H]1COC2=C1C(=O)C(=O)c1c2ccc2c1CCCC2(C)C .
14.8 µM (active)

Give the measured Potency of CN(C)c1ccc(-c2nc3ncc(Cl)c(N4CCN(CC(=O)Nc5nccs5)CC4)c3[nH]2)cc1 .
14.8 µM (active)

###

- Experiment Description: Quantitative High-Throughput drug screen in 47 multiple myeloma cell lines against the NCATS MIPE library collection: KMS11_JCRBsus cell viability assay (AID 1919873); note: nearly all actives have a fitted effect of over 50% in size; note: potency is the fitted concentration of half-maximal effect
- Cond: KMS11 myeloma viability, CellTiter-Glo ATP luminescence, 48 h; series mostly up to 45.8 µM
Records with an inconclusive call do not appear. Active and inactive are the calls of the source. Calls follow the shape of the dose curve; as a rule, active = well fitted cell-killing curve with a large enough effect; inconclusive = small, poorly fitted or top-dose-only effect, or effect the other way; inactive = no such curve, though single readings can be large or run the other way.
Observation Type: Potency

>  <Compound>
C=CC[N+]1([C@H]2C[C@H]3[C@@H]4CC[C@H]5C[C@H](O)[C@@H](N6CCOCC6)C[C@]5(C)[C@@H]4CC[C@]3(C)[C@H]2OC(C)=O)CCCC1

>  <Potency>
inactive

$$$$
>  <Compound>
CCC=CC[C@H]1C(=O)CC[C@@H]1CC(=O)OC

>  <Potency>
inactive

$$$$
>  <Compound>
Cn1cc(-c2ccc3nnc(Sc4ccc5ncccc5c4)n3n2)cn1

>  <Potency>
inactive

$$$$
>  <Compound>
CN1CCc2c(n(Cc3ccc(C(=O)NO)cc3)c3ccccc23)C1

>  <Potency>
18.7 µM (active)

$$$$
>  <Compound>
Cc1ccc(C(=O)N(CCCN)[C@@H](c2nc3cc(Cl)ccc3c(=O)n2Cc2ccccc2)C(C)C)cc1

>  <Potency>
inactive

$$$$

Give the measured Potency of CC(C)=CCCC(C)=CCCC(C)=CCCC(C)=CCCC(C)=CCCC(C)=CCCC(C)=CCCC(C)=CCCC(C)=CCO .
inactive

Give the measured Potency of Clc1ccc(COC(Cn2ccnc2)c2ccc(Cl)cc2Cl)c(Cl)c1 (stereo unspecified) .
23.5 µM (active)

Give the measured Potency of O=C(Nc1cccc2c(=O)cc(-c3nn[nH]n3)oc12)c1ccc(OCCCCc2ccccc2)cc1 .
23.5 µM (active)

Give the measured Potency of CN(C)CCOc1ccc(C(=C(CCCl)c2ccccc2)c2ccccc2)cc1 .
inactive

Give the measured Potency of OC[C@H]1O[C@@H](O[C@H]2[C@@H](O)[C@@](O)(CO)O[C@@H]2CO)[C@H](O)[C@@H](O)[C@@H]1O .
inactive

Give the measured Potency of CCOC(=O)N1CCN([N+]([O-])=NOc2cc(ON=[N+]([O-])N3CCN(C(=O)OCC)CC3)c([N+](=O)[O-])cc2[N+](=O)[O-])CC1 .
5.9 µM (active)
